- Test system: Wolbachia pipientis
- assayExplanation: Anti-Wolbachia Cell-Based Screen
- Assay type: functional
- Design: scale not given: in the data most compounds retested in dose-response had high values
- conditionInfo: 5 µM
Among all 48,000 compounds or so, about 13,000 (27%) showed an effect of 50% or more. This is one part of the list.
readoutLabel: Percent Effect (%)
One number for each entry, in %.

// known answers, use as guide
compound | readoutLabel | reportedMeasurement
COc1cc(CN(C)C(=O)NCCC2CCCO2)ccc1SC (stereo unspecified) | Percent Effect | -4.598
Cc1nn(C2CCCC2)c2nc(C(C)(C)CN3CCN(C)CC3)[nH]c12 | Percent Effect | 98.14
COc1nc2c(cc1C(=O)N1CCCOC(Cn3cccn3)C1)CCC2 (stereo unspecified) | Percent Effect | 0.1052
CC(CN1CCOCC1)NCc1nncn1C1CCCCC1 (stereo unspecified) | Percent Effect | -12.38
CC(C)=CCN1C[C@H]2CC[C@@H]1CN(C(=O)c1ccc(S(N)(=O)=O)cc1)C2 | Percent Effect | -17.62

Attention now shifts to the item below.
Request: What value of measured Percent Effect is listed for `Cc1nn(-c2ccccc2)c(C)c1-c1ccnc(N2CCC(O)CC2)n1` ?
Result: -6.995

###

Assign Percent Effect to each entry below.
- System: Wolbachia pipientis
- assayExplanation: Anti-Wolbachia Cell-Based Screen
- Type: functional
- Set-up: scale not given: in the data most compounds retested in dose-response had high values
- conditionInfo: 5 µM
About 13,000 (27%) of roughly 48,000 compounds showed an effect of 50% or more. Some of the results follow.
Answers are plain numbers, in %.

// known answers, use as guide
compound | Percent Effect, %
O=C(CC1CCC2(CC1)CCN(Cc1cccnc1)CC2)N1CC=CC1.O=C(O)C(F)(F)F.O=C(O)C(F)(F)F | 82.49
CCc1ncc2c(n1)CN(Cc1cn3ccsc3n1)CC2 | 20.43
CN(Cc1nccs1)C1CCN(c2cccc(-c3cscn3)c2)CC1 | -5.707
O=C(O)C(F)(F)F.O=C(O)C(F)(F)F.O=C(O)C(F)(F)F.c1cc(CN2CCOCC3(CCN(CC4CCOCC4)CC3)C2)ccn1 | -16.5
CSC1(CNC(=O)N(C)Cc2ccc(C)s2)CCOCC1 | -11.34
Clc1ccc(CN2CCN(Cn3nccc3-c3cccnc3)CC2)s1 | 6.087
CNC(=O)[C@H]1C[C@@H]2CN(S(=O)(=O)c3ccc(C)c(F)c3)C[C@@H]2N1C.O=C(O)C(F)(F)F | -6.907
Cc1ccc([C@@H]2CN(C(=O)c3ccc[nH]3)C[C@H]2NC(=O)C2CC2)cc1 | 0.8109

Request: What value of measured Percent Effect is listed for CC(C)Cc1ccc(C(=O)Cn2cnnc2[S+](C)[O-])cc1 (centres undefined) ?
Result: 22.36

###

- Tested on: Wolbachia pipientis
- assayExplanation: Anti-Wolbachia Cell-Based Screen
- Format: functional
- Parameters: scale not given: in the data most compounds retested in dose-response had high values
- conditionInfo: 5 µM
Out of some 48,000 compounds screened, about 13,000 (27%) showed an effect of 50% or more. The list shows a part of the results.
Assign Percent Effect to each entry below.
Numbers only, in %.

compound | reportedMeasurement
CC(C)(C)OC(=O)NC1(c2noc(-c3ccco3)n2)CCC1 | -13.08
CN(C)CCN(Cc1cccc(C(F)(F)F)c1)C(=O)c1cc[nH]n1 | 1.923
CCC(C)N(Cc1cccnc1)C(=O)CCSC (stereo unspecified) | -1.177
c1ccc(Cc2nc(CNC3CCC4(CCNCC4)CC3)no2)cc1 | 94.06
CN(C)c1ccc(C(=O)N2CCCC2c2cnn(C)c2)nn1 (stereo unspecified) | 5.055
CS(=O)(=O)N1CC2(CCCN(C3COC3)C2)Cc2ccccc21 (stereo unspecified) | 116.4
O=C(O)C(F)(F)F.O=C(c1ccncc1)N1CCC2(CCCN(c3ncc(F)cn3)C2)C1 (stereo unspecified) | 105.7
NCc1ccc(N2CCN(c3ncccn3)CC2)c(F)c1 | 3.698

Look up Percent Effect for the entries below, preserving their order.
1. COc1cccc(Cl)c1C(C(=O)O)N(C)Cc1nnc(C)o1 (stereo unspecified)
2. CCOc1ccccc1C(C(=O)O)N(C)Cc1nc(C)c[nH]1 (stereo unspecified)
3. COc1ccc(C(=O)N2CCC(C3CCN(c4ncccn4)CC3)C2)o1 (stereo unspecified)
4. CS(=O)(=O)N1CC2(CCN(C3COC3)C2)Cc2ccccc21 (stereo unspecified)
5. CCc1nc(CN2CCCC(NCCn3cncn3)C2)no1 (stereo unspecified)
6. CCCc1noc(CNC2CCCN(Cc3noc(C4CC4)n3)C2)n1 (stereo unspecified)
7. COc1nc2c(cc1C(=O)NCc1noc(-c3ccco3)n1)CCC2
8. O=C(c1ccccc1F)N1CC(c2nc(-c3ccc[nH]c3=O)no2)C1

Result:
7.233
110.9
-7.407
109.7
25.84
116.1
-22.9
1.982

Look up Percent Effect for the entries below, preserving their order.
1. O=C(O)C(F)(F)F.O=C(O)C(F)(F)F.c1ccc(CN2CCOCC3(CCN(C4CCOCC4)C3)C2)cc1 (stereo unspecified)
2. CC(C)c1nsc(N2CCOC3(CCCC3)C2)n1
3. O=C(c1ccccc1F)N1CCOC(c2nc(-c3ncccn3)no2)C1 (stereo unspecified)

Result:
1: -14.02; 2: -27.55; 3: 128.4

Look up Percent Effect for the entries below, preserving their order.
1. O=C(c1ccccc1F)N1CC(c2nc(C3CC3)no2)C1
2. CCc1noc(CNC2CCCN(Cc3noc(C4CC4)n3)C2)n1 (stereo unspecified)

Result:
1: 5.464; 2: 122.3

Look up Percent Effect for the entries below, preserving their order.
1. c1coc(-c2nc(CNC3CCCNC3)no2)c1 (stereo unspecified)
2. OC1(CNCc2noc(Cc3ccccc3)n2)CCCNC1 (stereo unspecified)
3. O=C(O)C(F)(F)F.O=C1CO[C@@H]2CN(Cc3cccs3)C[C@H]2N1CC1CC1
4. C1CC(NCc2nc(C3CC3)no2)CN(Cc2noc(C3CC3)n2)C1 (stereo unspecified)
5. CO[C@H]1COCCN(C(=O)c2ccc(F)cc2)C1
6. Cc1cc(CN(C)C(=O)c2cc(COc3ccccc3)[nH]n2)n[nH]1
7. CCc1nc(CN2CCCC(NCc3cc(C)no3)C2)no1 (stereo unspecified)

Result:
1: 116.1; 2: 0.3473; 3: 3.643; 4: 4.824; 5: 0.8542; 6: -16.83; 7: 2.816

Look up Percent Effect for the entries below, preserving their order.
1. CCc1nc(CN2CCCC(NCc3ccc(C(N)=O)cc3)C2)no1 (stereo unspecified)
2. COCc1nc(CNC2CCC3(CCNCC3)CC2)no1
3. Cc1ccc(N2CCC3(CCCN(C(=O)c4cccnc4)C3)C2)nn1.O=C(O)C(F)(F)F (stereo unspecified)
4. O=C(c1cccnc1N1CCOC(c2ccc(F)cc2)C1)N1CCCC1 (stereo unspecified)
5. CS(=O)(=O)CCOCCNc1ccc(C#N)cc1F
6. Cc1ncc(CNC2CCCN(Cc3noc(C4CC4)n3)C2)s1 (stereo unspecified)
7. Cc1nc(C(NC(=O)CC(F)(F)F)c2ccc(Cl)cc2)no1 (stereo unspecified)
8. Cc1occc1C(=O)N1CCC2(CCCN(c3ncc(F)cn3)C2)C1.O=C(O)C(F)(F)F (stereo unspecified)

Result:
[-8.136, -7.512, -9.172, 5.755, -9.887, -12.11, 0.7806, 116.2]

Look up Percent Effect for the entries below, preserving their order.
1. CCc1nc(CN2CCCC(NCc3nnc(C4CC4)n3C)C2)no1 (stereo unspecified)
2. CS(=O)(=O)N1CCOC2(CCN(c3ncccn3)CC2)c2ccccc21
3. CCOc1ccccc1C(C(=O)O)N(C)Cc1cc(C)[nH]n1 (stereo unspecified)
4. O=C(NCCc1cccs1)[C@H]1CO[C@H]2CCN(CC3CC3)C[C@H]2C1.O=C(O)C(F)(F)F
5. Cc1ccc(C(=O)N2CCOC(c3nc(-c4ncccn4)no3)C2)cc1 (stereo unspecified)

Result:
1. 109.6
2. -2.489
3. 105.4
4. 100.3
5. 94.58

Look up Percent Effect for the entries below, preserving their order.
1. Cc1cc(-c2nn(C)c(Cl)c2CN2CCOCC2CC(=O)O)no1 (stereo unspecified)
2. c1ccc(-c2nc(CNC3CCCN(c4cccnn4)C3)no2)cc1 (stereo unspecified)
3. Cc1occc1C(=O)N1CCC2(CCCN(Cc3cccs3)C2)C1.O=C(O)C(F)(F)F (stereo unspecified)
4. c1cnnc(N2CCCC(NCc3nnc(-c4ccco4)o3)C2)c1 (stereo unspecified)
5. CCOc1ccccc1C(C(=O)O)N(C)Cc1nnc(C)o1 (stereo unspecified)

Result:
[1.04, -14.96, -3.04, 5.713, 103.2]

Measured values drawn from ChEMBL document CHEMBL3988442 for this set.
